Experiment: Cytostatic effect on exponentially growing MDBK cells (MTS)
Type: cell-based, Bovine
Details: bovine; Table 9; reduction of growth of exponentially growing MDBK cells by 50%; mean of 2-5 determinations
REPORTED ENDPOINT: CC50 at 3 days (µg/mL)
The figure you give is taken to be in µg/mL; do not add the unit.

Look up CC50 at 3 days for this compound: `c1ccc(-c2nc3ccn(CC4CCCCC4)cc-3n2)cc1` 22

Look up CC50 at 3 days for this compound: `Clc1ccccc1-c1nc2ccn(Cc3ccc(Br)cc3)cc-2n1` 35

Look up CC50 at 3 days for this compound: `Clc1ccccc1Cn1ccc2nc(-c3ccccc3)nc-2c1` 22

Look up CC50 at 3 days for this compound: `c1ccc(-c2ccc(Cn3ccc4nc(-c5ccccc5)nc-4c3)cc2)cc1` 20

Look up CC50 at 3 days for this compound: `CC(C)CCn1ccc2nc(-c3ccccc3)nc-2c1` 50

Look up CC50 at 3 days for this compound: `COc1cccc(Cn2ccc3nc(-c4ccccc4)nc-3c2)c1` 56

Look up CC50 at 3 days for this compound: `C(=Cc1ccccc1)Cn1ccc2nc(-c3ccccc3)nc-2c1` 31.7

Look up CC50 at 3 days for this compound: `N#Cc1ccc(Cn2ccc3nc(-c4ccccc4)nc-3c2)cc1` 46

Look up CC50 at 3 days for this compound: `FC(F)(F)c1ccc(Cn2ccc3nc(-c4ccccc4)nc-3c2)cc1` 21

Look up CC50 at 3 days for this compound: `Fc1cccc(F)c1Cn1ccc2nc(-c3ccccc3)nc-2c1` 60

Data origin: patent US8779141B2
